test system: SK-OV-3; assay: NCI tumour cell line growth inhibition, 48 h
Calls of active or inactive are those of the source. Cut-off read from the data, not from the text of the source: active = GI50 up to about 1.1 µM and inactive = higher.
Possible outcomes: yes (1) = active, no (0) = inactive

[
  {
    "COMPOUND": "COc1ccc(C(=O)Sc2c(-c3ccccc3)c(=O)n(-c3ccccc3)c(=S)n2-c2ccccc2)cc1",
    "MEASURED TARGET": "SK-OV-3",
    "GROUP": "no (0)"
  },
  {
    "COMPOUND": "CCCCCCCCCCCCCCCCOCC(CC(F)(F)P(=O)(O)O)OC(C)=O (centres undefined)",
    "MEASURED TARGET": "SK-OV-3",
    "GROUP": "no (0)"
  },
  {
    "COMPOUND": "CC12C3CC4C5CC(C(C53)[C@@H]1NCc1ccccc1)C42 (some centres undefined)",
    "MEASURED TARGET": "SK-OV-3",
    "GROUP": "no (0)"
  },
  {
    "COMPOUND": "C=C(CS(=O)(=O)c1ccccc1)[P+](c1ccccc1)(c1ccccc1)c1ccccc1",
    "MEASURED TARGET": "SK-OV-3",
    "GROUP": "no (0)"
  },
  {
    "COMPOUND": "CCOc1c2ccsc2c(OCC)c2ccsc12",
    "MEASURED TARGET": "SK-OV-3",
    "GROUP": "no (0)"
  },
  {
    "COMPOUND": "COc1ccc(S(=O)(=O)N(C)CC(=O)O)cc1",
    "MEASURED TARGET": "SK-OV-3",
    "GROUP": "no (0)"
  },
  {
    "COMPOUND": "O=C(O)CO/N=C1/C(=C2/C(=O)Nc3ccccc32)Nc2ccccc21",
    "MEASURED TARGET": "SK-OV-3",
    "GROUP": "no (0)"
  },
  {
    "COMPOUND": "CC#C[C@]1(O)CCC2[C@@H]3CCC4=CC(=O)CCC4=C3[C@@H](c3ccc(N(C)C)cc3)C[C@@]21C (some centres undefined)",
    "MEASURED TARGET": "SK-OV-3",
    "GROUP": "no (0)"
  },
  {
    "COMPOUND": "Nc1nc(N)c2nn(-c3ccc(C(=O)O)cc3)nc2n1",
    "MEASURED TARGET": "SK-OV-3",
    "GROUP": "no (0)"
  },
  {
    "COMPOUND": "CN1CCOC1(C)c1ccccc1 (centres undefined)",
    "MEASURED TARGET": "SK-OV-3",
    "GROUP": "no (0)"
  },
  {
    "COMPOUND": "COc1ccccc1/C=C1\\N=C(C)OC1=O",
    "MEASURED TARGET": "SK-OV-3",
    "GROUP": "no (0)"
  },
  {
    "COMPOUND": "COC(=O)C(Cc1ccc(N(C)C)cc1)(NC(=O)c1ccccc1)P(=O)(OC)OC (centres undefined)",
    "MEASURED TARGET": "SK-OV-3",
    "GROUP": "no (0)"
  },
  {
    "COMPOUND": "COC(=O)C(Cc1ccccc1)/N=C/c1c(O)c(O)c(C(C)C)c2cc(C)c(-c3c(C)cc4c(C(C)C)c(O)c(O)c(/C=N/C(Cc5ccccc5)C(=O)OC)c4c3O)c(O)c12 (centres undefined)",
    "MEASURED TARGET": "SK-OV-3",
    "GROUP": "no (0)"
  },
  {
    "COMPOUND": "CC(=O)Oc1ccc(C(c2ccc(OC(C)=O)cc2)c2ccccn2)cc1",
    "MEASURED TARGET": "SK-OV-3",
    "GROUP": "no (0)"
  },
  {
    "COMPOUND": "COc1ccc2c(c1)/C(=C\\c1c(C)nc3n1CCS3)C(=O)N2",
    "MEASURED TARGET": "SK-OV-3",
    "GROUP": "no (0)"
  },
  {
    "COMPOUND": "N=C(N)SCCC(=O)CCSC(=N)N",
    "MEASURED TARGET": "SK-OV-3",
    "GROUP": "no (0)"
  },
  {
    "COMPOUND": "COC(=O)C1C(O)C(C)C(O)C(C)(O)/C=C\\C=C(C)C(=O)Nc2c(C)c(OC(C)=O)c3c(c2O)C(=O)C(C)=C2OCOC(=C23)C(C)=CC(C)(O)C(O)C(C)C1OC(C)=O (centres undefined)",
    "MEASURED TARGET": "SK-OV-3",
    "GROUP": "no (0)"
  },
  {
    "COMPOUND": "COc1cc([C@@H]2c3cc4c(cc3[C@@H](NC(=O)c3ccc(N)cc3)C3COC(=O)[C@@H]32)OCO4)cc(OC)c1O (some centres undefined)",
    "MEASURED TARGET": "SK-OV-3",
    "GROUP": "no (0)"
  },
  {
    "COMPOUND": "CC(C)(C)c1cc(C(O)(C(=O)O)C(=O)O)cc(C(C)(C)C)c1O",
    "MEASURED TARGET": "SK-OV-3",
    "GROUP": "no (0)"
  },
  {
    "COMPOUND": "COC(=O)C(=O)C(C(=O)OC)C(=O)C(=O)Nc1c(C)cccc1C (centres undefined)",
    "MEASURED TARGET": "SK-OV-3",
    "GROUP": "no (0)"
  },
  {
    "COMPOUND": "C[C@]12CC[C@@H]3c4cc(Br)c(O)c(Br)c4CC[C@H]3[C@@H]1CCC2=O",
    "MEASURED TARGET": "SK-OV-3",
    "GROUP": "no (0)"
  },
  {
    "COMPOUND": "O=[N+]([O-])c1cc(-c2nnc(C34CC5CC(CC(C5)C3)C4)o2)cc([N+](=O)[O-])c1",
    "MEASURED TARGET": "SK-OV-3",
    "GROUP": "no (0)"
  },
  {
    "COMPOUND": "O/N=C1\\CCc2cc3c(cc21)CCC3",
    "MEASURED TARGET": "SK-OV-3",
    "GROUP": "no (0)"
  },
  {
    "COMPOUND": "CC(=O)/C(=C/NC(=S)c1ccncc1)C(=O)Nc1ccccc1C",
    "MEASURED TARGET": "SK-OV-3",
    "GROUP": "no (0)"
  },
  {
    "COMPOUND": "COC(=O)CCCc1ccc2c(c1)CC1(Cc3ccccc3C1)C2",
    "MEASURED TARGET": "SK-OV-3",
    "GROUP": "no (0)"
  },
  {
    "COMPOUND": "CCN(CC)CCC1(C(=O)OC)SCCc2ccc(C)cc21 (centres undefined)",
    "MEASURED TARGET": "SK-OV-3",
    "GROUP": "no (0)"
  },
  {
    "COMPOUND": "Nc1ncnc2c1nc(Cl)n2C1OC2COP(=O)(O)OC2C1O (centres undefined)",
    "MEASURED TARGET": "SK-OV-3",
    "GROUP": "no (0)"
  },
  {
    "COMPOUND": "C=C1C2CCC3(CCC4C5(C)CCCC4(C=[N+](CCO)C5)C3C2)C1O (centres undefined)",
    "MEASURED TARGET": "SK-OV-3",
    "GROUP": "no (0)"
  },
  {
    "COMPOUND": "CCOC(=O)/C=C/c1c[nH]c(C(=O)OCC)c1",
    "MEASURED TARGET": "SK-OV-3",
    "GROUP": "no (0)"
  },
  {
    "COMPOUND": "N#Cc1ccc(Oc2ccccc2)cc1C#N",
    "MEASURED TARGET": "SK-OV-3",
    "GROUP": "no (0)"
  },
  {
    "COMPOUND": "CCOc1ncnc2ccc(Cl)c(I)c12",
    "MEASURED TARGET": "SK-OV-3",
    "GROUP": "no (0)"
  },
  {
    "COMPOUND": "NCCCC(N)(C(=O)O)C(F)F (centres undefined)",
    "MEASURED TARGET": "SK-OV-3",
    "GROUP": "no (0)"
  },
  {
    "COMPOUND": "CO[C@H]1C[C@H](O[C@H]2CC[C@]3(C=O)[C@H]4CC[C@]5(C)[C@@H](C6=CC(=O)OC6)CC[C@]5(O)[C@@H]4CC[C@]3(O)C2)O[C@H](C)[C@H]1O[C@@H]1O[C@H](CO)[C@@H](O)[C@H](O)[C@H]1O",
    "MEASURED TARGET": "SK-OV-3",
    "GROUP": "yes (1)"
  },
  {
    "COMPOUND": "CN(C)c1ccc(/C=C(\\NC(=O)c2ccccc2)C(=O)Nc2ccccc2C(=O)NN2C(=O)CSC2c2ccc(N(C)C)cc2)cc1 (centres undefined)",
    "MEASURED TARGET": "SK-OV-3",
    "GROUP": "no (0)"
  },
  {
    "COMPOUND": "CC(C)(C)OC(=O)N1CC(O)O[C@H](c2ccccc2)[C@@H]1c1ccccc1 (some centres undefined)",
    "MEASURED TARGET": "SK-OV-3",
    "GROUP": "no (0)"
  },
  {
    "COMPOUND": "Cc1cc(=O)n2nc(CCl)sc2n1",
    "MEASURED TARGET": "SK-OV-3",
    "GROUP": "no (0)"
  },
  {
    "COMPOUND": "CC(=O)OC1(Sc2ccccc2)CC2[C@H]3COC(C)(C)O[C@H]3CC[C@@]2(C)CC1=O (some centres undefined)",
    "MEASURED TARGET": "SK-OV-3",
    "GROUP": "no (0)"
  },
  {
    "COMPOUND": "CC(NNC(=O)c1ccncc1)c1ccc(Cl)cc1Cl (centres undefined)",
    "MEASURED TARGET": "SK-OV-3",
    "GROUP": "no (0)"
  },
  {
    "COMPOUND": "O=C(Nc1ccccc1C(=O)NCc1ccccc1)/C(=C/c1ccccc1O)NC(=O)c1ccccc1",
    "MEASURED TARGET": "SK-OV-3",
    "GROUP": "no (0)"
  }
]

Source listed as ChEMBL document CHEMBL1201862.
